# system: UniProt P07333
# Sequence (P07333 20-972): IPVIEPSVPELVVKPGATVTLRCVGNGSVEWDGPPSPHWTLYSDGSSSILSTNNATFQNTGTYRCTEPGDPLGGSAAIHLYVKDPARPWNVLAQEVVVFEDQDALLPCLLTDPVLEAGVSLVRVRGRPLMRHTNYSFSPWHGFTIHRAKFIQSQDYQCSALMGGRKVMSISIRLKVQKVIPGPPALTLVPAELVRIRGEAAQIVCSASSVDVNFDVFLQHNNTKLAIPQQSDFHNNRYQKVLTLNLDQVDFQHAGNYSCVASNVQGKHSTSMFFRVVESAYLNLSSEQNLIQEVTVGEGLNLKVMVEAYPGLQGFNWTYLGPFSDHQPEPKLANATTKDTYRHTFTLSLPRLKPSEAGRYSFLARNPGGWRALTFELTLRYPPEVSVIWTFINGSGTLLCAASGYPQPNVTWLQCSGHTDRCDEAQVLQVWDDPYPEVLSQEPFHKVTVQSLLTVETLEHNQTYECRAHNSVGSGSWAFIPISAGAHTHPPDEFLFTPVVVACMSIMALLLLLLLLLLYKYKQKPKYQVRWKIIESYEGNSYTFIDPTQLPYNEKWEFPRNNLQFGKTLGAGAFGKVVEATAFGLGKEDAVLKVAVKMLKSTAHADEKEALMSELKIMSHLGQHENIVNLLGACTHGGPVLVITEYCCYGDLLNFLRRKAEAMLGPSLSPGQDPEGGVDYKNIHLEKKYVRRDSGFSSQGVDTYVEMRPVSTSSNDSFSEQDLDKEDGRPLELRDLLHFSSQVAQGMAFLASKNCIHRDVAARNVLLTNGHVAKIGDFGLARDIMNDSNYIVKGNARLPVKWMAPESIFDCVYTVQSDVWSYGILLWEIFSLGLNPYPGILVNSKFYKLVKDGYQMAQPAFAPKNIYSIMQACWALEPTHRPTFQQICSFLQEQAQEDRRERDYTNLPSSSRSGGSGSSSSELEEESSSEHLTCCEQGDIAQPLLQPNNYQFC
pKd: −log10 of the molar value.
Exercise: for every item that follows, state its recorded pKd.

[[record]]
molecule = "CC(C)(c1cc(NC(=O)Nc2ccc(-c3ccc(N)nc3)cn2)no1)C(F)(F)F"
property_measured = "pKd"
recorded_measurement = "≥ 8.00"

[[record]]
molecule = "CC(C)(c1cc(NC(=O)Cc2ccc(-c3ccc(NCCN4CCOCC4)nc3)cc2)no1)C(F)(F)F.CS(=O)(=O)O [Example 109, methanesulfonate]"
property_measured = "pKd"
recorded_measurement = "≥ 8.00"

[[record]]
molecule = "CC(C)(C)c1cc(NC(=O)Cc2ccc(-c3cnc(N)cc3C(F)(F)F)cc2)no1"
property_measured = "pKd"
recorded_measurement = "7.00 to 8.00"

[[record]]
molecule = "CC(C)(C)c1cc(NC(=O)Cc2ccc(-c3cnc(N)c(Cl)c3)cc2)no1.CS(=O)(=O)O [Example 115, methanesulfonate]"
property_measured = "pKd"
recorded_measurement = "≥ 8.00"

[[record]]
molecule = "CC(C)(C)c1cc(NC(=O)Cc2ccc(-c3ccc(N)nc3)c(F)c2)no1.CS(=O)(=O)O [Example 125, methanesulfonate]"
property_measured = "pKd"
recorded_measurement = "≥ 8.00"


# map each molecule to its pKd
1. CS(=O)(=O)O.Nc1ccc(-c2ccc(CC(=O)Nc3cc(C4(C(F)(F)F)CC4)on3)c(F)c2)cn1 [Example 139, methanesulfonate]
2. CC1(c2cc(NC(=O)Cc3ccc(-c4ccc(N)nc4)cc3)no2)CCC1.CS(=O)(=O)O [Example 144, methanesulfonate]
3. O=C(Nc1ccc(-c2ccc(NCCN3CCOCC3)nc2)cc1)Nc1cc(C2(C(F)(F)F)CC2)on1 [Example 36, methanesulfonate]
4. CC1(c2cc(NC(=O)Cc3ccc(-c4ccc(N)nc4)cc3)no2)COC1.CS(=O)(=O)O [Example 99, methanesulfonate]

1: ≥ 8.00; 2: ≥ 8.00; 3: ≥ 8.00; 4: ≥ 8.00

====

Observed Kd, system FLT3 kinase (Homo sapiens, UniProt P36888).

Worked cases, answers included:
[[record]]
compound = "CC1(c2cc(NC(=O)Cc3ccc(-c4cnc(N)c(Cl)c4)cc3)no2)COC1.CS(=O)(=O)O [Example 128, methanesulfonate]"
property_measured = "Kd"
recorded_measurement = "≤ 1 nM"

[[record]]
compound = "CC(C)(C)c1cc(NC(=O)Cc2ccc(-c3ccc(NCCN4CCOCC4)nc3)cc2)on1.CS(=O)(=O)O [Example 96, methanesulfonate]"
property_measured = "Kd"
recorded_measurement = "≤ 1 nM"

[[record]]
compound = "Cc1cc(-c2ccc(CC(=O)Nc3cc(C(C)(C)C)on3)cc2)cnc1N [Example 85, methanesulfonate]"
property_measured = "Kd"
recorded_measurement = "≤ 1 nM"


# map each compound to its Kd
1. CC(C)(C)c1cc(NC(=O)Nc2ccc(-c3ccc(N)nc3)cc2F)no1
2. CC(C)(C)c1cc(NC(=O)Nc2ccc(-c3cnc(NCCN4CCOCC4)nc3)cc2)no1

1: ≤ 1 nM; 2: ≤ 1 nM

# map each compound to its Kd
1. CC(C)(C)Sc1cc(-c2ccc(CC(=O)Nc3cc(C(C)(C)C)on3)cc2)cnc1N
2. CC(C)(C)c1cc(NC(=O)Nc2ccc(-c3ccc(N)nc3)cc2)on1 [Example 70, methanesulfonate]
3. CS(=O)(=O)O.Nc1ccc(-c2ccc(CC(=O)Nc3cc(C4(C(F)(F)F)CC4)on3)cc2)c(F)n1 [Example 137, methanesulfonate]
4. CC1(c2cc(NC(=O)Nc3ccc(-c4ccc(N)nc4)cn3)no2)CC1.CS(=O)(=O)O [Example 104, methanesulfonate]
5. CC1(c2cc(NC(=O)Cc3ccc(-c4ccc(N)nc4)cc3)no2)CC1.CS(=O)(=O)O [Example 100, methanesulfonate]
6. COc1cc(-c2ccc(N)nc2)ccc1NC(=O)Nc1cc(C(C)(C)C)on1 [Example 69, methanesulfonate]

1: 1 to 10 nM; 2: 1 to 10 nM; 3: ≤ 1 nM; 4: ≤ 1 nM; 5: ≤ 1 nM; 6: 1 to 10 nM

# map each compound to its Kd
1. Cc1cc(N)ncc1-c1ccc(CC(=O)Nc2cc(C(C)(C)C)on2)cc1 [Example 86, methanesulfonate]
2. CC(C)(c1cc(NC(=O)Cc2ccc(-c3ccc(N)nc3F)cc2)no1)C(F)(F)F.CS(=O)(=O)O [Example 142, methanesulfonate]

["≤ 1 nM", "≤ 1 nM"]

# map each compound to its Kd
1. CC(C)(C)c1cc(NC(=O)C(N)c2ccc(-c3ccc(N)nc3)cc2)no1 (stereo not shown)
2. CS(=O)(=O)O.Nc1ccc(-c2ccc(CC(=O)Nc3cc(C4(C(F)(F)F)CC4)on3)c(F)c2)cn1 [Example 139, methanesulfonate]
3. Cn1nc(C(C)(C)CO)cc1NC(=O)Nc1ccc(-c2ccc(N)nc2)cc1 [Example 82, methanesulfonate]

["1 to 10 nM", "≤ 1 nM", "1 to 10 nM"]

# map each compound to its Kd
1. CC(C)(C)c1cc(NC(=O)Nc2ccc(-c3ccc(N)nc3)c(Cl)c2)no1
2. CC(C)(C)c1cc(NC(=O)Cc2ccc(-c3cnc(N)cc3F)cc2)no1.CS(=O)(=O)O [Example 151, methanesulfonate]

["≤ 1 nM", "≤ 1 nM"]

Lab book: Kd of COc1nc(N)ccc1-c1ccc(CC(=O)Nc2cc(C(C)(C)C)on2)cc1.CS(=O)(=O)O [Example 131, methanesulfonate] noted as 1 to 10 nM

====

# system: kinase panel containing either 359 or 386 distinct kinases
# test.protocol: Selectivity score S10 from competition binding against a panel of kinases
# experimental.parameters: compounds at 10 μM; panel of 386 distinct kinases
property.measured: Kinase specificty: S(10)-386 panel

[[record]]
compound = "CS(=O)(=O)O.Nc1ccc(-c2ccc(NC(=O)Nc3cc(C4(C(F)(F)F)CCC4)on3)cc2)cn1 [Example 121]"
system = "kinase panel containing either 359 or 386 distinct kinases"
recorded_measurement = "A (A≦0.1)"

[[record]]
compound = "CC1(c2cc(NC(=O)Cc3ccc(-c4cnc(N)c(F)c4)cc3)no2)COC1.CS(=O)(=O)O [Example 146]"
system = "kinase panel containing either 359 or 386 distinct kinases"
recorded_measurement = "A (A≦0.1)"

[[record]]
compound = "CC(C)(C)c1cc(NC(=O)Cc2ccc(-c3ccc(N)nc3)nc2)no1 [Example 155]"
system = "kinase panel containing either 359 or 386 distinct kinases"
recorded_measurement = "A (A≦0.1)"


====

# system: kinase panel containing either 359 or 386 distinct kinases
# test.protocol: Selectivity score S10 from competition binding against a panel of kinases
# experimental.parameters: compounds at 10 μM; panel of 359 distinct kinases
property.measured: Kinase specificty: S(10)-359 panel

Worked cases, answers included:
[[record]]
smiles_repr = "CC(C)(C)c1cc(NC(=O)Nc2ccc(-c3cnc4c(c3)CCCN4)cc2)no1"
property_measured = "Kinase specificty: S(10)-359 panel"
recorded_measurement = "A (A≦0.1)"

[[record]]
smiles_repr = "COc1cc(-c2cnc(N)nc2)ccc1NC(=O)Nc1cc(C(C)(C)C)on1"
property_measured = "Kinase specificty: S(10)-359 panel"
recorded_measurement = "A (A≦0.1)"

[[record]]
smiles_repr = "CC(C)(C)c1cc(NC(=O)Nc2ccc(-c3cnc(NCCN4CCOCC4)nc3)cc2)no1"
property_measured = "Kinase specificty: S(10)-359 panel"
recorded_measurement = "B (0.1<B≦0.2 nM)"

[[record]]
smiles_repr = "CC(C)(C)c1cc(NC(=O)Nc2ccc(-c3cnc(NCCN4CCOCC4)c(C#N)c3)cc2)no1"
property_measured = "Kinase specificty: S(10)-359 panel"
recorded_measurement = "A (A≦0.1)"

[[record]]
smiles_repr = "CC(C)(C)c1cc(NC(=O)Nc2ccc(-c3ccc(N)nc3)cc2Cl)no1"
property_measured = "Kinase specificty: S(10)-359 panel"
recorded_measurement = "B (0.1<B≦0.2 nM)"

[[record]]
smiles_repr = "Cc1nc(N)ncc1-c1ccc(NC(=O)Nc2cc(C(C)(C)C)on2)cc1"
property_measured = "Kinase specificty: S(10)-359 panel"
recorded_measurement = "B (0.1<B≦0.2 nM)"


# map each molecule to its Kinase specificty: S(10)-359 panel
1. CC(C)(C)c1cc(NC(=O)Nc2ccc(-c3cnc4c(c3)OCCN4)cc2)no1
2. CC(C)(C)c1cc(NC(=O)Nc2ccc(-c3cnc(NCCN4CCCCC4)nc3)cc2)no1
3. CC(C)(C)c1cc(NC(=O)Nc2ccc(-c3ccc(N)nc3)cc2)no1
4. Nc1ncc(-c2ccc(NC(=O)Cc3cccc(C(F)(F)F)c3)cc2)cn1
5. CC(C)(C)c1cc(NC(=O)Nc2ccc(-c3cnc(N)c(C#N)c3)cc2)no1

B (0.1<B≦0.2 nM)
B (0.1<B≦0.2 nM)
A (A≦0.1)
A (A≦0.1)
B (0.1<B≦0.2 nM)
